Just for reference, patent US9795140B2 is where these values come from.

# Tested on: Yellow Fever Mosquito (Aedes aegypti, AEDSAE)
# Protocol Summary: Bioassay on Yellow Fever Mosquito (YFM) larvae, 96-well plate
# Format: in vivo
# Experimental Context: about 1 day-old larvae, room temperature, 3 days, scored on mortality
# Method: Certain molecules disclosed in this document were tested against YFM using procedures described in the following paragraph. In the reporting of the results, the “GPA & YFM Rating Table” was used (See Table Section). […] The day before plates are to be treated, mosquito eggs are placed in Millipore water containing liver powder to begin hatching (4 g. into 400 mL). […] After 3 days, each well is observed and scored based on mortality. […]
Outcome Measure: YFM % Control (or Mortality) rating

Answered examples (5):
molecule="CCCNC(=O)c1cc(NC(=O)[C@H]2[C@H](c3ccc(F)c(Cl)c3)C2(Cl)Cl)ccc1Cl (relative stereo)" outcome_measure="YFM % Control (or Mortality) rating" observed="A (80-100)"
molecule="O=C(NCC(F)(F)F)c1cc(NC(=O)[C@H]2[C@H](c3ccc(Br)c(C(F)(F)F)c3)C2(Cl)Cl)ccc1Cl (relative stereo)" outcome_measure="YFM % Control (or Mortality) rating" observed="A (80-100)"
molecule="CCNC(=O)c1cc(NC(=O)[C@H]2[C@H](c3ccc(F)c(Cl)c3)C2(Cl)Cl)ccc1Cl (relative stereo)" outcome_measure="YFM % Control (or Mortality) rating" observed="A (80-100)"
molecule="CN(CC(F)(F)F)C(=O)c1cc(NC(=O)[C@H]2[C@H](c3cc(Cl)cc(Cl)c3)C2(Cl)Cl)ccc1Cl (relative stereo)" outcome_measure="YFM % Control (or Mortality) rating" observed="A (80-100)"
molecule="O=C(NCc1cccnc1)c1cc(NC(=O)[C@H]2[C@H](c3cc(Cl)c(Cl)c(Cl)c3)C2(Cl)Cl)ccc1Cl (relative stereo)" outcome_measure="YFM % Control (or Mortality) rating" observed="A (80-100)"

Next molecule, YFM % Control (or Mortality) rating to be filled in.
stdin: Please give the measured YFM % Control (or Mortality) rating for this molecule: CS(=O)(=O)CCNC(=O)c1cc(NC(=O)[C@H]2[C@H](c3cc(Cl)cc(Cl)c3)C2(Cl)Cl)ccc1Cl (relative stereo)
stdout: A (80-100)

* * *

# System: Beet Armyworm (Spodoptera exigua, LAPHEG)
# Protocol Summary: Bioassay on Beet Armyworm (BAW), 128-well diet tray assay
# Assay type: in vivo
# Experimental Context: 168 h, 50 μg/cm^2 on artificial diet, second instar larvae, 25° C., five to seven days, average of eight wells, read-out: BAW % Control (or Mortality) rating
# Description: Certain molecules disclosed in this document were tested against BAW and CL using procedures described in the following examples. In the reporting of the results, the “BAW & CL Rating Table” was used (See Table Section). Bioassays on BAW were conducted using a 128-well diet tray assay. […] Percent mortality was recorded for the larvae in each well; activity in the eight wells was then averaged. […]
Outcome Measure: mortality at 50 µg/cm2

molecule="O=C(NCc1ccccn1)c1cc(NC(=O)[C@H]2[C@H](c3cc(Cl)cc(Cl)c3)C2(Cl)Cl)ccc1Cl (relative stereo) [F8]" observed="50 to 100%"
molecule="O=C(NCCCCl)c1cc(NC(=O)[C@H]2[C@H](c3cc(Cl)cc(Cl)c3)C2(Cl)Cl)ccc1Cl (relative stereo) [F57]" observed="50 to 100%"

Next molecule, mortality at 50 µg/cm2 to be filled in.
stdin: Please give the measured mortality at 50 µg/cm2 for this molecule: O=C(NCC(F)(F)F)c1cc(NC(=O)[C@H]2[C@H](c3cc(F)cc(Br)c3)C2(Cl)Cl)ccc1Cl (relative stereo) [F123]
stdout: 50 to 100%

* * *

Here the recorded mortality at 200 ppm is given for each entry.
# Tested on: Green Peach Aphid (Myzus persicae, MYZUPE)
# Protocol Summary: Bioassay on Green Peach Aphid (GPA), foliar spray on cabbage seedlings
# Assay type: in vivo
# Experimental Context: 72 h, 200 ppm spray on infested cabbage seedlings, three days, Abbott corrected % control, read-out: GPA % Control (or Mortality) rating

Answered examples (5):
molecule="O=C(NCC(F)(F)C(F)(F)F)c1cc(NC(=O)[C@H]2[C@H](c3cc(Cl)cc(Cl)c3)C2(Cl)Cl)ccc1Cl (relative stereo)" observed="80 to 100%"
molecule="CC(C)CNC(=O)c1cc(NC(=O)[C@H]2[C@H](c3cc(Cl)cc(Cl)c3)C2(Cl)Cl)ccc1Cl (relative stereo)" observed="80 to 100%"
molecule="O=C(NCc1cccnc1)c1cc(NC(=O)[C@H]2[C@H](c3cc(Cl)cc(Cl)c3)C2(Cl)Cl)ccc1Cl (relative stereo)" observed="0 to 80%"
molecule="CC(C)(CS(C)(=O)=O)NC(=O)c1cc(NC(=O)[C@H]2[C@H](c3cc(Cl)cc(Cl)c3)C2(Cl)Cl)ccc1Cl (relative stereo)" observed="0 to 80%"
molecule="O=C(NOCC1CC1)c1cc(NC(=O)C2C(c3cc(Cl)cc(Cl)c3)C2(Cl)Cl)ccc1Cl (stereo not shown)" observed="0 to 80%"

stdin: Please give the measured mortality at 200 ppm for this molecule: O=C(NCCc1ccc(F)cc1)c1cc(NC(=O)C2C(c3cc(Cl)c(Cl)c(Cl)c3)C2(Cl)Cl)ccc1Cl (stereo not shown)
stdout: 0 to 80%

stdin: Please give the measured mortality at 200 ppm for this molecule: O=C(NOc1ccccc1)c1cc(NC(=O)[C@H]2[C@H](c3cc(Cl)cc(Cl)c3)C2(Cl)Cl)ccc1Cl (relative stereo)
stdout: 0 to 80%

stdin: Please give the measured mortality at 200 ppm for this molecule: O=C(NCc1ccccc1)c1cc(NC(=O)[C@H]2[C@H](c3cc(Cl)cc(Cl)c3)C2(Cl)Cl)ccc1Cl (relative stereo)
stdout: 0 to 80%

stdin: Please give the measured mortality at 200 ppm for this molecule: O=C(NOCC1CC1)c1cc(NC(=O)C2C(c3cc(Cl)c(Cl)c(Cl)c3)C2(Cl)Cl)ccc1Cl (stereo not shown)
stdout: 80 to 100%

stdin: Please give the measured mortality at 200 ppm for this molecule: O=C(NCCCF)c1cc(NC(=O)[C@H]2[C@H](c3cc(Cl)cc(Cl)c3)C2(Cl)Cl)ccc1Cl (relative stereo)
stdout: 80 to 100%

stdin: Please give the measured mortality at 200 ppm for this molecule: CCNC(=O)c1cc(NC(=O)[C@H]2[C@H](c3cc(Cl)cc(Cl)c3)C2(Cl)Cl)ccc1Cl (relative stereo)
stdout: 80 to 100%

stdin: Please give the measured mortality at 200 ppm for this molecule: C=CCONC(=O)c1cc(NC(=O)[C@H]2[C@H](c3ccc(Cl)c(Cl)c3)C2(Cl)Cl)ccc1Cl (relative stereo)
stdout: 0 to 80%

stdin: Please give the measured mortality at 200 ppm for this molecule: CCCCCCNC(=O)c1cc(NC(=O)[C@H]2[C@H](c3cc(Cl)cc(Cl)c3)C2(Cl)Cl)ccc1Cl (relative stereo)
stdout: 0 to 80%

stdin: Please give the measured mortality at 200 ppm for this molecule: O=C(NCCCOCC(F)(F)F)c1cc(NC(=O)[C@H]2[C@H](c3cc(Cl)cc(Cl)c3)C2(Cl)Cl)ccc1Cl (relative stereo)
stdout: 80 to 100%

stdin: Please give the measured mortality at 200 ppm for this molecule: N#CCCCNC(=O)c1cc(NC(=O)[C@H]2[C@H](c3cc(Cl)cc(Cl)c3)C2(Cl)Cl)ccc1Cl (relative stereo)
stdout: 80 to 100%

stdin: Please give the measured mortality at 200 ppm for this molecule: N#CCCNC(=O)c1cc(NC(=O)[C@H]2[C@H](c3cc(Cl)cc(Cl)c3)C2(Cl)Cl)ccc1Cl (relative stereo)
stdout: 0 to 80%

stdin: Please give the measured mortality at 200 ppm for this molecule: O=C(NOCc1ccc(F)cc1)c1cc(NC(=O)C2C(c3cc(Cl)cc(Cl)c3)C2(Cl)Cl)ccc1Cl (stereo not shown)
stdout: 0 to 80%

stdin: Please give the measured mortality at 200 ppm for this molecule: CC(=O)NCCNC(=O)c1cc(NC(=O)[C@H]2[C@H](c3cc(Cl)cc(Cl)c3)C2(Cl)Cl)ccc1Cl (relative stereo)
stdout: 80 to 100%

stdin: Please give the measured mortality at 200 ppm for this molecule: CS(=O)(=O)CCNC(=O)c1cc(NC(=O)[C@H]2[C@H](c3cc(Cl)cc(Cl)c3)C2(Cl)Cl)ccc1Cl (relative stereo)
stdout: 80 to 100%

stdin: Please give the measured mortality at 200 ppm for this molecule: O=C(NCC(F)F)c1cc(NC(=O)[C@H]2[C@H](c3cc(Cl)cc(Cl)c3)C2(Cl)Cl)ccc1Cl (relative stereo)
stdout: 80 to 100%

stdin: Please give the measured mortality at 200 ppm for this molecule: O=C(NOCC1CC1(F)F)c1cc(NC(=O)C2C(c3ccc(Cl)c(Cl)c3)C2(Cl)Cl)ccc1Cl (stereo not shown)
stdout: 80 to 100%

stdin: Please give the measured mortality at 200 ppm for this molecule: O=C(NCCC(F)(F)F)c1cc(NC(=O)[C@H]2[C@H](c3cc(Cl)cc(Cl)c3)C2(Cl)Cl)ccc1Cl (relative stereo)
stdout: 80 to 100%
